Target: T1, canine OX40L, full length membrane form, expressed on HEK293 cells (canine)
T1 chain: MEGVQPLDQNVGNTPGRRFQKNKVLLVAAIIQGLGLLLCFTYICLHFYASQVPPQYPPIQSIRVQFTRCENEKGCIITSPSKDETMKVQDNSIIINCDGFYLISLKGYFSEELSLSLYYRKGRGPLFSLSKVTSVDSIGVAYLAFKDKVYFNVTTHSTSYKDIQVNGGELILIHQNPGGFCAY
Assay: cell-based or functional assay
Quick reference for % Signal Inhibition Rep2 among some binders
Give the value, in units of %, as a plain number.

Example binders with recorded % Signal Inhibition Rep2:
binder="PMX294 (antibody, V domains shown) VH: EVQLVESGGDLVKPEGSLRLSCAVSGFTFSSNDMSWVRQAPGKGLQWVAYITYDGRSTSYTDIVKGRFTVSRDNAKNTLYLQMNSLRSEDAAVYYCAKAQRGWFFDYWGQGTLVTVSS VL: SYVLTQLPSVSVTLRQTARITCGGDSIGSKNVYWYQQKLGQAPVLIIYDDDSRPSGIPERISGANSGNTATLTISGALAEDEADYYCQVWDSSTGVFGGGTHLTVL" measured_quantity="% Signal Inhibition Rep2" measure_unit=% numeric_readout=88.7
binder="PMX052 (antibody, V domains shown, also called PMX52) VH: EVQLVESGGDLVKPAGSLRLSCVASGFTFSSYSMSWVRQAPEKGLQLVAGISGGGSRTYYSDAVKGRFTISRDNAKNTVYLQMNSLRAEDTAIYYCAKDGGSWAGYNFDYWGQGTLVTVSS VL: DIVMTQTPPSLSVSPRETASISCKASQSLLHSDGSTYLDWYLQKPGQSPQLLIYLGSNRFTGVSDRFSGSGSGTEFTLRISRVEANDTGVYYCGQGTQLPYTFGQGTELEIK" measured_quantity="% Signal Inhibition Rep2" measure_unit=% numeric_readout=29.2

Attention now turns to another entry.
For record PMX096 (antibody, V domains shown) VH: EVQLVESGGDLVKPGGSLRLSCVASGFTFNTYHMNWVRQAPGKGLHWVAFINSGGSDTSYADTVQGRFTISRDYAKNTLYLQMNSLRAEDTAVYYCASGYIWTHFDYWGQGTLVTVSS VL: SYVLTQLPSVSVTLRQTAHITCGGDIIGSKSVYWYQQKLGQAPVMIIYRDNNRPTGIPERFSGASSGNTATLTISGSLAEDEADYYCQVWDSRTQALFGGGTHLTVL the listed % Signal Inhibition Rep2 is 59.1

Sourced from patent US20250340659A1
